# TGT: LC8 dynein light chain (DYNLL2), full-length, His6-tagged (human (by the printed accession Q96FJ2), UniProt Q96FJ2 1-89)
# Sequence (Q96FJ2 whole entry, one chain of several): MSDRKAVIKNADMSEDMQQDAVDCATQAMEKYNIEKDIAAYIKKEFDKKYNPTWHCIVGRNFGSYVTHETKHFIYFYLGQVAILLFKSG
# MEASUREMENT DESCRIPTION: SPR; His6-LC8 immobilised on Ni2+-NTA HTG sensor chip (ProteOn XPR36) at three densities (1200, 900, 600 RU); peptides injected at five concentrations, 60 ul/min; 20 mM Hepes, 150 mM NaCl, 0.05% Tween-20, 0.1 mM TCEP, 50 uM EDTA, pH 7.5; 1:1 Langmuir global fit; apparent Kd, mean of kinetic and equilibrium analysis
# CONDITIONS USED: both partners purified
ASSAY ENDPOINT: pKd
Please treat pKd as minus the base-10 logarithm of the molar concentration.

Solved entries:
BINDER | pKd
ALKVDKETNTE (core 887-894 printed; 11-mer assumed to add 3 N-terminal residues, as in the S1 Table motif format; termini chemistry not stated) [WWC1 (KIBRA) LC8 binding motif peptide, start 887] | 5.40
PTLVDKETNTD (core 962-969 printed; 11-mer assumed to add 3 N-terminal residues, as in the S1 Table motif format; termini chemistry not stated) [WWC2 LC8 binding motif peptide, start 962] | 4.75
QQFCDAGSQTD (printed start 208 appears to be in older 1092-aa numbering (current entry +124, so core 332-339); 11-mer assumed to add 3 N-terminal residues, as in the S1 Table motif format) [WWC3 LC8 binding motif peptide, start 208] | 5.27
TGSKDSSTQTD (core 873-880 printed; 11-mer assumed to add 3 N-terminal residues, as in the S1 Table motif format; termini chemistry not stated) [AMOTL1 LC8 binding motif peptide, start 873] | 5.81

Prompt: Quick one: pKd for RQTLDAGSQTS (core 282-289 printed; 11-mer assumed to add 3 N-terminal residues, as in the S1 Table motif format; termini chemistry not stated) [WWC2 LC8 binding motif peptide, start 282] ?
Response: 4.49
